Listed here are molecules together with their documented composite z-score.
- EXPERIMENTAL SYSTEM: Fibroblast growth factor 2 (Homo sapiens)
- RUN DESCRIPTION: FGF2 binders on small-molecule microarrays, primary screen, biochemical, small-molecule microarray, 635/667 nm fluorescence (AID 1133)
- TEST CONDITIONS: small-molecule microarray binding, FGF2, fluorescence 635/667; higher = more signal
Answer as a number with no unit attached.

Please look at O=C1OCC=C[C@H]2OC34C=CCN(Cc5ccccc5)C(=O)[C@H]3N(CCCCCCO)C(=O)[C@@H]4[C@@H]12 (stereo not given in full) and tell me its recorded composite z-score on Fibroblast growth factor 2 (Homo sapiens).
-0.292
